targetDesc: human serum albumin (HSA) (Homo sapiens, UniProt P02768)
Construct: purchased Sigma-Aldrich
Sequence (P02768 25-609): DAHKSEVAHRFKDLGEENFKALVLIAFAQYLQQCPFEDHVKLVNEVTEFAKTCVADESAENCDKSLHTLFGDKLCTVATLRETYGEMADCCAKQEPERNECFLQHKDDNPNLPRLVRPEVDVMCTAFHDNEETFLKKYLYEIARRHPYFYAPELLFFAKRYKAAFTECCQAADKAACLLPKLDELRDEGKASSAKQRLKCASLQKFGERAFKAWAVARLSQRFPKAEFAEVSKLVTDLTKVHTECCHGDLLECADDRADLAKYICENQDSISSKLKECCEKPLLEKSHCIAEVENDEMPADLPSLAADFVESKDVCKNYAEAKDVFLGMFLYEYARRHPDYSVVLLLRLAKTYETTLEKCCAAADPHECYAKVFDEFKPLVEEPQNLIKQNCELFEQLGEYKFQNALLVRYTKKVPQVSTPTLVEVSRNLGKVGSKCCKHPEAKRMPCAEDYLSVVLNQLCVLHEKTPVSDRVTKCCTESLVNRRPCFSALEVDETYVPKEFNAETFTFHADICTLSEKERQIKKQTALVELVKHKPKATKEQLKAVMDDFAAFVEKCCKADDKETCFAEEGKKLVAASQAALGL
assayProtocol: Fluorescence quenching titration of human serum albumin
Assay type: binding
statedConditions: T 303 K
metric: n (binding stoichiometry)
Output spec: single numeric token, no unit.

Ask | Can you look up n (binding stoichiometry) on human serum albumin (HSA) (Homo sapiens, UniProt P02768) for Cc1cc(C)c(C(=O)NCC(=O)NCc2ccccc2Cl)c(S)n1 ?
Reply | 0.73

Ask | Lookup: n (binding stoichiometry) / human serum albumin (HSA) (Homo sapiens, UniProt P02768) / Cc1cc(C)c(C(=O)NCC(=O)NCc2ccc(Cl)cc2)c(S)n1
Reply | 0.74

Ask | Query for human serum albumin (HSA) (Homo sapiens, UniProt P02768): what n (binding stoichiometry) does the record show for Cc1cc(C)c(C(=O)NCC(=O)NCc2ccccc2)c(S)n1 ?
Reply | 0.54

Ask | Checklist item: n (binding stoichiometry) tested on human serum albumin (HSA) (Homo sapiens, UniProt P02768), entry Cc1cc(C)c(C(=O)NCC(=O)NCc2ccc(Oc3ccccc3)cc2)c(S)n1 , value?
Reply | 0.60

###

targetDesc: human serum albumin (HSA) (Homo sapiens, UniProt P02768)
Construct: purchased Sigma-Aldrich
assayProtocol: Fluorescence quenching titration of human serum albumin
Assay type: binding
statedConditions: HSA complex formation; van't Hoff
For each record, write down the corresponding ΔS^0.
Form entry: value (J·mol^−1·K^−1) — number only.

Ask | Please give the measured ΔS^0 for this compound: Cc1cc(C)c(C(=O)NCC(=O)NCc2ccc(Oc3ccccc3)cc2)c(S)n1 [Compound 3b]
Reply | −1282.70

Ask | Could you share which ΔS^0 value was measured for Cc1cc(C)c(C(=O)NCC(=O)NCc2ccccc2Cl)c(S)n1 [Compound 3d] ?
Reply | −570.21

Ask | Requested read-out: ΔS^0. Entry: Cc1cc(C)c(C(=O)NCC(=O)NCc2ccc(Cl)cc2)c(S)n1 [Compound 3c]
Reply | −571.09

Ask | What does the record list as ΔS^0 for Cc1cc(C)c(C(=O)NCC(=O)NCc2ccccc2)c(S)n1 [Compound 3g] ?
Reply | −579.14

###

Would you mind telling me the reported KSV·10^4 of each entry?
targetDesc: human serum albumin (HSA) (Homo sapiens)
Construct: purchased Sigma-Aldrich
assayProtocol: Fluorescence quenching titration of human serum albumin
Format: binding
statedConditions: T 308 K; PBS pH 7.4
Method: In the human albumin, the amino acid residue Trp214 in subdomain IIA is of particular significance in structural studies. Subdomain IIA is responsible for binding many drugs and endogenous compounds [37]. To investigate the interactions between HSA and the tested compounds, fluorescence spectroscopy was conducted. […]

Ask | Query (compound): Cc1cc(C)c(C(=O)NCC(=O)NCc2ccc(Cl)cc2)c(S)n1 [Compound 3c] ; field requested: KSV·10^4
Reply | 2.07 10^4 dm^3·mol^−1

Ask | // returns reported KSV·10^4 for input Cc1cc(C)c(C(=O)NCC(=O)NCc2ccccc2)c(S)n1 [Compound 3g]
Reply | 0.63 10^4 dm^3·mol^−1

Ask | May I ask what KSV·10^4 has been recorded for Cc1cc(C)c(C(=O)NCC(=O)NCc2ccc(Oc3ccccc3)cc2)c(S)n1 [Compound 3b] ?
Reply | 0.86 10^4 dm^3·mol^−1

Ask | Record request: KSV·10^4 value, item Cc1cc(C)c(C(=O)NCC(=O)NCc2ccccc2Cl)c(S)n1 [Compound 3d]
Reply | 1.88 10^4 dm^3·mol^−1
